Test system: Malme-3M
METHOD_SUMMARY: NCI tumour cell line growth inhibition, 48 h
Calls of active or inactive are those of the source. No stated cut-off is given here; in the data, active = GI50 up to about 1.1 µM and inactive = higher.
Return exactly one item of active, inactive

Enquiry: Outcome? CCOc1ccccc1N1C(=O)C(=O)C(c2nc3ccccc3o2)/C(=N\N)C1=O (stereo unspecified)
Return: inactive

Enquiry: Outcome? COC(=O)[C@H]1CO[C@@H](C(C)(C)C)N1C(=O)N1C=CC(=O)C[C@@H]1C
Return: inactive

Enquiry: Outcome? CC(C)(C)[Si](C)(C)Oc1cc(CO)cc2c1cc(=N)o[n+]2[O-]
Return: inactive

Enquiry: Outcome? Cc1ccccc1NC(=O)C1C(=O)N(c2ccccc2C)C(=O)/C1=N\N (stereo unspecified)
Return: inactive

Enquiry: Outcome? C=C1C(=O)OC2C[C@@]3(C)CCCC(=C)C3CC12 (stereo partly specified)
Return: inactive

Enquiry: Outcome? C/C(=N/NC(=S)NCCc1ccccn1)c1cnccn1
Return: inactive

Enquiry: Outcome? O=C(NN1C(=O)c2ccccc2C1=O)c1ccccc1Nc1ccccc1C(=O)NN1C(=O)c2ccccc2C1=O
Return: inactive

Enquiry: Outcome? c1ccc([P+](c2ccccc2)(c2ccccc2)c2ccc([P+](c3ccccc3)(c3ccccc3)c3ccccc3)c3ccccc23)cc1
Return: inactive

Enquiry: Outcome? Cc1ccc(C2SC(=N)Nc3c2c(C)nn3C(=O)c2ccccc2O)cc1 (stereo unspecified)
Return: inactive

Enquiry: Outcome? Cc1cc(N(CCOS(C)(=O)=O)CCOS(C)(=O)=O)ccc1/C=N/c1ccc(-c2csc(-c3ccc(Br)cc3)n2)cc1
Return: inactive

Enquiry: Outcome? N=C(N)SCc1cn2ccccc2n1
Return: inactive

Enquiry: Outcome? Fc1nc(Sc2ncnc3nc[nH]c23)nc(-c2c3ccccc3c3sc4ccccc4n23)n1
Return: inactive

Enquiry: Outcome? COc1cccc(/C=C2\CCC(CN(C)C)C2=O)c1 (stereo unspecified)
Return: inactive

Enquiry: Outcome? COc1ccc(C(N)=O)cc1/N=N/N(C)C
Return: inactive

Enquiry: Outcome? c1ccncc1
Return: inactive

Enquiry: Outcome? O=S(=O)(CCn1c(Sc2ccccc2)c(Sc2ccccc2)c2ccccc21)c1ccccc1
Return: inactive

Enquiry: Outcome? COC1CC(C)C(OC)C2=CC(=O)C=C(NC(=O)/C(C)=C/C=C\C(C)C(OC(N)=O)/C(C)=C\C(C)C1OC)C2=O (stereo unspecified)
Return: active

Enquiry: Outcome? O=c1oc2ccc3ccccc3c2cc1-c1cn2c(n1)sc1ccccc12
Return: inactive

Enquiry: Outcome? N#CC(C#N)=Cc1ccc(C=C2SC3=C(SCCS3)S2)s1
Return: inactive

Enquiry: Outcome? COc1ccccc1C(=O)N(C)c1ccc(Cl)c(C(=O)OC(C)C)c1
Return: inactive

Enquiry: Outcome? CC(C)C(=O)Nc1nc2[nH]cnc2c(=O)[nH]1
Return: inactive

---

Please provide measured GI50 for the entries that follow.
Test system: NCI/ADR-RES
METHOD_SUMMARY: NCI tumour cell line growth inhibition, 48 h
Calls of active or inactive are those of the source. No stated cut-off is given here; in the data, active = GI50 up to about 1.1 µM and inactive = higher.

Enquiry: With NCI/ADR-RES as the test system, provide measured GI50 for this compound: Cc1ccc(Nc2c3c(c(C#N)c4nc5ccccc5n24)CCCC3)cc1
Return: 21.3 µM (inactive)

Enquiry: With NCI/ADR-RES as the test system, provide measured GI50 for this compound: CC(C)c1ccc(/C=C2\CSCC3=C2N=C2SCC(=O)N2C3c2ccc(C(C)C)cc2)cc1 (stereo not drawn)
Return: > 100 µM (inactive)

Enquiry: With NCI/ADR-RES as the test system, provide measured GI50 for this compound: Oc1cc(-c2ccc3ccccc3c2)nc2ncc(Cl)cc12
Return: 6.32 µM (inactive)

Enquiry: With NCI/ADR-RES as the test system, provide measured GI50 for this compound: O=C(N/C(=C\NC1=NCCS1)C(=O)N1CSC[C@@H]1C(=O)O)c1ccccc1
Return: > 100 µM (inactive)

Enquiry: With NCI/ADR-RES as the test system, provide measured GI50 for this compound: C[C@]12CC[C@H]3[C@@H](CC=C4C[C@@H](O)CC[C@@]43C)[C@@H]1C/C(=C\c1ccncc1)[C@@H]2O
Return: 17.3 µM (inactive)

Enquiry: With NCI/ADR-RES as the test system, provide measured GI50 for this compound: COC1(OC)CCCCCCCCC(OC)(OC)CCCCCCCC1
Return: > 100 µM (inactive)

Enquiry: With NCI/ADR-RES as the test system, provide measured GI50 for this compound: COc1ccccc1C(=O)N(C)c1ccc(Cl)c(C(=O)OC(C)C)c1
Return: 52.1 µM (inactive)

Enquiry: With NCI/ADR-RES as the test system, provide measured GI50 for this compound: CCOC(=O)CC(N1CC1)N1CC1
Return: > 10 µM (inactive)

Enquiry: With NCI/ADR-RES as the test system, provide measured GI50 for this compound: C[C@]12[C@@H]3CC[C@H]1[C@@H](OC(=O)Nc1cc([N+](=O)[O-])cc([N+](=O)[O-])c1)C(=O)N2CC3
Return: > 100 µM (inactive)

Enquiry: With NCI/ADR-RES as the test system, provide measured GI50 for this compound: Cc1coc2c1CC1(C)C(CCC(O)C1C)C2 (stereo not drawn)
Return: > 100 µM (inactive)

Enquiry: With NCI/ADR-RES as the test system, provide measured GI50 for this compound: Cc1cc(N(CCOS(C)(=O)=O)CCOS(C)(=O)=O)ccc1/C=N/c1ccc(-c2csc(-c3ccc(Br)cc3)n2)cc1
Return: 15.1 µM (inactive)

Enquiry: With NCI/ADR-RES as the test system, provide measured GI50 for this compound: Cn1c(=O)c2c(nc(NCCNc3nc4c(c(=O)n(C)c(=O)n4C)n3C)n2C)n(C)c1=O
Return: > 100 µM (inactive)

Enquiry: With NCI/ADR-RES as the test system, provide measured GI50 for this compound: N=C(N)SCc1ccc(N=C=S)cc1
Return: 16.9 µM (inactive)

Enquiry: With NCI/ADR-RES as the test system, provide measured GI50 for this compound: CC(=O)Oc1ccc2c(c1)Oc1cc(C(C)=O)ccc1C21OC(=O)c2ccccc21 (stereo not drawn)
Return: > 100 µM (inactive)

Enquiry: With NCI/ADR-RES as the test system, provide measured GI50 for this compound: O=C1C(c2c(O)[nH]c3ccc(Cl)cc23)=Nc2ccccc21
Return: 7.91 µM (inactive)

Enquiry: With NCI/ADR-RES as the test system, provide measured GI50 for this compound: O=S(=O)(CCn1c(Sc2ccccc2)c(Sc2ccccc2)c2ccccc21)c1ccccc1
Return: > 100 µM (inactive)

Enquiry: With NCI/ADR-RES as the test system, provide measured GI50 for this compound: Fc1nc(Sc2ncnc3nc[nH]c23)nc(-c2c3ccccc3c3sc4ccccc4n23)n1
Return: > 100 µM (inactive)

Enquiry: With NCI/ADR-RES as the test system, provide measured GI50 for this compound: CC1=C[C@@H](C)C[C@]2(C)CC[C@H](O2)[C@]23CC[C@](CO)(C[C@H](O2)[C@@H]2O[C@@](C)(CC2=O)[C@@H](O)[C@H]2CC[C@@]4(CCC[C@@H](O4)[C@H](C)C(=O)O[C@H]4C[C@H]([C@]5(O)OCC[C@H](C)[C@@H]5O)O[C@H]4C=C1)O2)O3
Return: > 5.18 µM (inactive)

---

Please provide measured GI50 for the entries that follow.
Test system: A498
METHOD_SUMMARY: NCI tumour cell line growth inhibition, 48 h
Calls of active or inactive are those of the source. No stated cut-off is given here; in the data, active = GI50 up to about 1.1 µM and inactive = higher.

Enquiry: Input CC(C)C(=O)Nc1nc2[nH]cnc2c(=O)[nH]1 , output reported GI50.
Return: > 100 µM (inactive)

Enquiry: Input CCCCOc1c(C(=O)O)cc(Br)cc1C(=O)O , output reported GI50.
Return: > 100 µM (inactive)

Enquiry: Input COC(=O)c1ccc(CCC2=CC(=O)C=CC2=O)cc1 , output reported GI50.
Return: 18.7 µM (inactive)

Enquiry: Input NS(=O)(=O)c1ccc(N2C(=O)C(=O)N(c3ccccc3)C2=S)cc1 , output reported GI50.
Return: > 100 µM (inactive)

Enquiry: Input COc1ccc(S(=O)(=O)N/N=C\c2cc([N+](=O)[O-])cc(I)c2O)c(OC)c1OC , output reported GI50.
Return: 29.8 µM (inactive)

Enquiry: Input C=C1CC2(C)CCC(OC(=O)C3(C)OC3C)C(C)(OC(C)=O)C2CC1=C(C)C (stereo unspecified) , output reported GI50.
Return: > 100 µM (inactive)

Enquiry: Input Fc1nc(Sc2ncnc3nc[nH]c23)nc(-c2c3ccccc3c3sc4ccccc4n23)n1 , output reported GI50.
Return: > 100 µM (inactive)

Enquiry: Input COc1cc2cc(C(=O)N3CC(COS(C)(=O)=O)c4c3cc([N+](=O)[O-])c3ccccc43)[nH]c2c(OC)c1OC (stereo unspecified) , output reported GI50.
Return: 10.7 µM (inactive)

Enquiry: Input c1ccc2c(c1)nc1n2CCNC1 , output reported GI50.
Return: > 100 µM (inactive)

Enquiry: Input O=C1c2cccc3c(Cl)ccc(c23)C(=O)N1CCCN1CCN(CCCN2C(=O)c3cccc4c(Cl)ccc(c34)C2=O)CC1 , output reported GI50.
Return: > 100 µM (inactive)

Enquiry: Input CCNC1=Nc2ccc(Cl)cc2C(c2ccccc2)=NN1 , output reported GI50.
Return: 29.9 µM (inactive)
